meta.source: ChEMBL document CHEMBL2346657

- System: Aspergillus terreus
- test_method_notes: Antimicrobial activity against Aspergillus terreus MTCC 1782 at 750 ug/ml after 72 hrs by cup plate method
- Type: functional
- assay_conditions: MTCC 1782, 72 h, read-out: IZ
reported_metric: zone of inhibition at 750 µg/mL (mm)
Numeric answer only, unit mm assumed.

These recorded examples may help you get a feel for the data.
• Nc1nc(=S)[nH]c2c1C(c1c(-c3ccccc3)[nH]c3ccc(Cl)cc13)C=C(c1ccccc1)O2 (stereo not given) = 8
• Cc1ccc(C2=CC(c3c(-c4ccccc4)[nH]c4ccc(Cl)cc34)c3c(N)nc(=O)[nH]c3O2)cc1 (stereo not given) = 8
• Cc1ccc2[nH]c(-c3ccccc3)c(C3C=C(c4ccccc4)Oc4[nH]nc(N)c43)c2c1 (stereo not given) = 9
• Nc1nc(=S)[nH]c2c1C(c1c(-c3ccccc3)[nH]c3ccccc13)C=C(c1ccccc1)O2 (stereo not given) = 5
• Cc1ccc2[nH]c(-c3ccccc3)c(C3C=C(c4ccc(Cl)cc4)Oc4nc[nH]c(=O)c43)c2c1 (stereo not given) = 6
• Nc1nc(=O)[nH]c2c1C(c1c(-c3ccccc3)[nH]c3ccc(Cl)cc13)C=C(c1ccc(Cl)cc1)O2 (stereo not given) = 9

Per the record, Nc1nc(=O)[nH]c2c1C(c1c(-c3ccccc3)[nH]c3ccccc13)C=C(c1ccccc1)O2 (stereo not given) has zone of inhibition at 750 µg/mL of 4

Record Cc1ccc2[nH]c(-c3ccccc3)c(C3C=C(c4ccc(Cl)cc4)OC(N)=C3C#N)c2c1 (stereo not given) , field zone of inhibition at 750 µg/mL: 13

Notebook: Cc1ccc(C2=CC(c3c(-c4ccccc4)[nH]c4ccccc34)c3c(N)n[nH]c3O2)cc1 (stereo not given) , zone of inhibition at 750 µg/mL read as 4

For record N#Cc1c(N)c2c(N)c3c(nc2oc1=O)OC(c1ccc(Cl)cc1)=CC3c1c(-c2ccccc2)[nH]c2ccccc12 (stereo not given) the listed zone of inhibition at 750 µg/mL is 10

// sample Cc1ccc2[nH]c(-c3ccccc3)c(C3C=C(c4ccc(Cl)cc4)Oc4nc5oc(=O)c(C#N)c(N)c5c(N)c43)c2c1 (stereo not given) , its zone of inhibition at 750 µg/mL was 9

Value of measured zone of inhibition at 750 µg/mL for the entry Cc1ccc(C2=CC(c3c(-c4ccccc4)[nH]c4ccc(Cl)cc34)c3c(nc[nH]c3=O)O2)cc1 (stereo not given) : 8

zone of inhibition at 750 µg/mL in this record for Nc1nc(=S)[nH]c2c1C(c1c(-c3ccccc3)[nH]c3ccccc13)C=C(c1ccc(Cl)cc1)O2 (stereo not given) : 5

Looking up Cc1ccc2[nH]c(-c3ccccc3)c(C3C=C(c4ccccc4)Oc4nc[nH]c(=O)c43)c2c1 (stereo not given) , I see its zone of inhibition at 750 µg/mL listed as 3

According to the records, this molecule Cc1ccc(C2=CC(c3c(-c4ccccc4)[nH]c4ccc(C)cc34)c3c(nc[nH]c3=O)O2)cc1 (stereo not given) displays zone of inhibition at 750 µg/mL of 9

// field: zone of inhibition at 750 µg/mL; key: O=c1[nH]cnc2c1C(c1c(-c3ccccc3)[nH]c3ccc(Cl)cc13)C=C(c1ccccc1)O2 (stereo not given) ; value = 10

Looking up N#Cc1c(N)c2c(N)c3c(nc2oc1=O)OC(c1ccccc1)=CC3c1c(-c2ccccc2)[nH]c2ccccc12 (stereo not given) , I see its zone of inhibition at 750 µg/mL listed as 5

zone of inhibition at 750 µg/mL in this record for Nc1nc(=O)[nH]c2c1C(c1c(-c3ccccc3)[nH]c3ccc(Cl)cc13)C=C(c1ccccc1)O2 (stereo not given) : 3

Entry Cc1ccc(C2=CC(c3c(-c4ccccc4)[nH]c4ccccc34)c3c(N)nc(=S)[nH]c3O2)cc1 (stereo not given) — recorded zone of inhibition at 750 µg/mL = 4

Entry Nc1n[nH]c2c1C(c1c(-c3ccccc3)[nH]c3ccccc13)C=C(c1ccc(Cl)cc1)O2 (stereo not given) — recorded zone of inhibition at 750 µg/mL = 6

The measured zone of inhibition at 750 µg/mL associated with Cc1ccc(C2=CC(c3c(-c4ccccc4)[nH]c4ccc(Cl)cc34)C(C#N)=C(N)O2)cc1 (stereo not given) reads 3

Form: molecule = Cc1ccc(C2=CC(c3c(-c4ccccc4)[nH]c4ccccc34)C(C#N)=C(N)O2)cc1 (stereo not given) ; zone of inhibition at 750 µg/mL = 6

For Cc1ccc(C2=CC(c3c(-c4ccccc4)[nH]c4ccccc34)c3c(N)nc(=O)[nH]c3O2)cc1 (stereo not given) the molecule record lists zone of inhibition at 750 µg/mL as 3

Input Nc1nc(=O)[nH]c2c1C(c1c(-c3ccccc3)[nH]c3ccccc13)C=C(c1ccc(Cl)cc1)O2 (stereo not given) . Output zone of inhibition at 750 µg/mL: 4

* * *

- Test system: Pseudomonas aeruginosa
- test_method_notes: Antimicrobial activity against Pseudomonas aeruginosa MTCC 1688 at 750 ug/ml after 24 hrs by cup plate method
- Assay type: functional
- assay_conditions: MTCC 1688, 24 h, read-out: IZ
Listed next: entries and their corresponding zone of inhibition at 750 µg/mL.
Numeric answer only, unit mm assumed.

Worked cases, answers included:
- Cc1ccc(C2=CC(c3c(-c4ccccc4)[nH]c4ccc(Cl)cc34)c3c(N)nc(=S)[nH]c3O2)cc1 (stereo not drawn): 10
- Cc1ccc(C2=CC(c3c(-c4ccccc4)[nH]c4ccc(Cl)cc34)c3c(nc4oc(=O)c(C#N)c(N)c4c3N)O2)cc1 (stereo not drawn): 2
- N#Cc1c(N)c2c(N)c3c(nc2oc1=O)OC(c1ccc(Cl)cc1)=CC3c1c(-c2ccccc2)[nH]c2ccc(Cl)cc12 (stereo not drawn): 8
- O=c1[nH]cnc2c1C(c1c(-c3ccccc3)[nH]c3ccccc13)C=C(c1ccc(Cl)cc1)O2 (stereo not drawn): 10
- Cc1ccc(C2=CC(c3c(-c4ccccc4)[nH]c4ccc(C)cc34)c3c(N)nc(=O)[nH]c3O2)cc1 (stereo not drawn): 10
- Cc1ccc2[nH]c(-c3ccccc3)c(C3C=C(c4ccccc4)Oc4[nH]c(=S)nc(N)c43)c2c1 (stereo not drawn): 8

Summary line: Nc1nc(=O)[nH]c2c1C(c1c(-c3ccccc3)[nH]c3ccc(Cl)cc13)C=C(c1ccc(Cl)cc1)O2 (stereo not drawn) , Pseudomonas aeruginosa, reported zone of inhibition at 750 µg/mL = 9

Item Cc1ccc2[nH]c(-c3ccccc3)c(C3C=C(c4ccccc4)Oc4[nH]c(=O)nc(N)c43)c2c1 (stereo not drawn) was tested on Pseudomonas aeruginosa; the reported zone of inhibition at 750 µg/mL is 10

* * *

- System: Klebsiella pneumoniae
- test_method_notes: Antimicrobial activity against Klebsiella pneumoniae NCTC 13368 at 750 ug/ml after 24 hrs by cup plate method
- Type: functional
- assay_conditions: NCTC 13368, 24 h, read-out: IZ
reported_metric: zone of inhibition at 750 µg/mL (mm)
Numbers only here, please. The scale is mm.

- Nc1nc(=O)[nH]c2c1C(c1c(-c3ccccc3)[nH]c3ccccc13)C=C(c1ccc(Cl)cc1)O2 (configuration not stated): 10

Reported zone of inhibition at 750 µg/mL for Cc1ccc(C2=CC(c3c(-c4ccccc4)[nH]c4ccc(Cl)cc34)C(C#N)=C(N)O2)cc1 (configuration not stated) was 10

For reference, reported zone of inhibition at 750 µg/mL for Nc1nc(=S)[nH]c2c1C(c1c(-c3ccccc3)[nH]c3ccccc13)C=C(c1ccccc1)O2 (configuration not stated) stands at 8

So, Cc1ccc2[nH]c(-c3ccccc3)c(C3C=C(c4ccccc4)Oc4nc[nH]c(=O)c43)c2c1 (configuration not stated) ? Its zone of inhibition at 750 µg/mL was 5

Measured zone of inhibition at 750 µg/mL of Nc1n[nH]c2c1C(c1c(-c3ccccc3)[nH]c3ccc(Cl)cc13)C=C(c1ccc(Cl)cc1)O2 (configuration not stated) : 13

* * *

- System: Klebsiella pneumoniae
- test_method_notes: Antimicrobial activity against Klebsiella pneumoniae NCTC 13368 at 750 ug/ml after 24 hrs by cup plate method
- Type: functional
- assay_conditions: NCTC 13368, 24 h, read-out: IZ
Overview of reported zone of inhibition at 750 µg/mL across a group of molecules:
The reply should be a number in mm, with the unit left off.

Here's what some known entries look like.
* Cc1ccc(C2=CC(c3c(-c4ccccc4)[nH]c4ccccc34)c3c(nc4oc(=O)c(C#N)c(N)c4c3N)O2)cc1 (centres undefined) | 11
* Cc1ccc2[nH]c(-c3ccccc3)c(C3C=C(c4ccccc4)Oc4[nH]c(=O)nc(N)c43)c2c1 (centres undefined) | 5
* Cc1ccc(C2=CC(c3c(-c4ccccc4)[nH]c4ccc(C)cc34)c3c(nc4oc(=O)c(C#N)c(N)c4c3N)O2)cc1 (centres undefined) | 10

Input Cc1ccc2[nH]c(-c3ccccc3)c(C3C=C(c4ccccc4)Oc4[nH]c(=S)nc(N)c43)c2c1 (centres undefined) . Output zone of inhibition at 750 µg/mL: 4
